Attribution: the domain aggregation screens of Martell et al. (2025)

Assay: soluble fraction after stress (log2 fold change); higher = more stays soluble; pooled small domains, quantitative proteomics
Conditions: stress: 50 degC
# soluble fraction (log2) values compiled below
// response body must contain only the number

Query: Quick one: soluble fraction (log2) of HMSREQARRFYFDTWAKHRASQPLTDLEKIALTVMLLHPEYHSLLDKPDHYVDKDYSPEAGQTNPFLHM ?
Result: -1.2

Query: Quick one: soluble fraction (log2) of HMPKAMAIMSEIAGTVHIDDTKKSRHVEVTGVDDNGAPVTKSYLIPFGHRLKVMEGDVLVKGALLT ?
Result: -0.0964

Query: Quick one: soluble fraction (log2) of HMTVSADQTTADAVIKLIDAIGTVSKNSGSAISAARSGYDALTDAQKKLVTNYNKLTQAEQVFSSLS ?
Result: 0.129

Query: Quick one: soluble fraction (log2) of HMAAHWANFLEALRAGRARRVLVARGVEGWLLKELERLGAPYTLVPRIELDTLLRTTHHQGIAAEVE ?
Result: -0.692

Query: Quick one: soluble fraction (log2) of HMLVIMKTGASEEEIGRVIERIEGEGLSAHVSRGTERTVIGVIGQGVDVHRIAGVLGGMSGVESLVPIS ?
Result: 0.0405

Query: Quick one: soluble fraction (log2) of HMFPDLTEDEQLIVDVLQRTGDLQINSLIVEANIPVNKMSEILFELEMKGVIRTLAGGVYQLL ?
Result: -1.46

Query: Quick one: soluble fraction (log2) of HMHTNNALWAIADDMRARKDDGEFDTYREGYKWAANNIVKEGIHITAIKLEKAYHKAKSEGKV ?
Result: -0.0602

Query: Quick one: soluble fraction (log2) of HMGAVDIATARQLISEIGLPIMLKAEGGGGGRGIFAIHNEAELEDAFFKASTMAQASFGNPRLFVEKF ?
Result: -0.228

Query: Quick one: soluble fraction (log2) of HMGIILDWELFEQFADKLKRKKVDFVIEPYLRFEGRRGEQSTLFIKDPSGNYLEFKAFKNIDMLFEK ?
Result: -0.874

----------
Assay: soluble fraction after stress (log2 fold change); higher = more stays soluble; pooled small domains, quantitative proteomics
Details: stress: 50 degC
Binary classification by soluble fraction (log2), with -0.7 as an inclusive lower bound for met; all other cases are not met.

Past entries and their recorded results:
HMKINKQHLAFQIFGIRAKLGLSMEQFGELLGANKSSVSGWERGTVVPSSQRLKKIAELGKISLAELLTP not met
HMGSLPPPKDGTTIYVVKPGDSLWRISGKFFGNPLFWPRLWEINPNIDNPNKIYPGDVISLKP met
HMEFPLSPHQYSVLRLMAQGLSNKQIAERLFLSENTVKGYVQEVLRRLGARNRLEAVMIANRRGWL met

Consider now this further sequence.
Query: Textbook exercise: given the entry HMQVTGLTAENAHRVTMIREKGTDHPPVPFHFRKEHHGTGNYVHLYGNPEDRNELHSRDFKDWEAVAFK , state whether its soluble fraction (log2) is greater than or equal to -0.7.
Result: met

----------
# soluble fraction (log2) values compiled below
Assay: soluble fraction after stress (log2 fold change); higher = more stays soluble; pooled small domains, quantitative proteomics
Conditions: stress: 50 degC
// response body must contain only the number

Before answering, review these 3 worked examples.
HMPEKNQITHLIRLIDDRDEFVRKRVREQLIKLGEDAIPFLEMAAKTENLEIQRIASEIIQAIIPRQ -0.13
HMTIRPEDVELVPAEDGYMQGDVVSNIFKGVHYELEVKANGYDWMVHTTKYVEVGSHVGIKVIPFNIQV -0.0208
HMIEKGSDALEKELRKNNLSINEFLTNKNIDIILDELKLKDIDDLYVNIALGKYTPNQIIKIVNK 0.237

Here is another sequence to look at.
Query: Quick one: soluble fraction (log2) of HMFKNWMPFDEARIFVRKLKFNSHDEFRKYLKANEINIPSKPWSTYKGKGWVSIGDFLGTHR ?
Result: -2.82

----------
Assay: soluble fraction after stress (log2 fold change); higher = more stays soluble; pooled small domains, quantitative proteomics
Details: stress: 50 degC
Classify on soluble fraction (log2) using bucket A = under -0.3, bucket B = from -0.3 up to 0.05, bucket C = 0.05 and over

Past entries and their recorded results:
HMGEGTAVGKALKFLAAQGKKFAPELLDMAGSLTGVEALSKLGDAIKGDPELSELDKRILLAELETDAV bucket B
HMAQLPPTATARATSDVSGLTASAALRTLLEQGFVPQIHGSGKVSRQHPPAGTLLEPGSTIQLFLEPS bucket C
HMSNPADDVVDLLRQLRLPHMRAAAPELLATAKAQRWDPAEAIRALLTEELAGRQASSINARRK bucket A
HMLKQLGRQEGRQEGAVDALRTVLALQIEQRFGPLDPTVQALIVAADIDALQRALSRVAVVSDLGAVFPP bucket B
HMKRREENLRRLALSTAERVKRKGKKEILNPMSPQERRIIHLTLQNNKEVVTHSEGEDPYRRVIISPRN bucket B

Query: Lab note: which band did HMTKGVKVEIGTEEASVDLYVVMEYGTPIQKAAYDAQESVRKAIETMTNLHVVRVDVHVQGVSF land in?
Result: bucket B

Query: Lab note: which band did HMEENIKKDIEVPNIEGLTIDEAKKRLKEVNLNISIEDMEEKEGTEIITQQLPKAGIKVKEGVAIIAY land in?
Result: bucket C

Query: Lab note: which band did HMEKKDTYTVKNGDSLWGIARTELGDGGRFREIYTLNADTIEAEAKKRGRSSSSEGHWIYPGSVLRLP land in?
Result: bucket B

----------
# soluble fraction (log2) values compiled below
Experiment: soluble fraction after stress (log2 fold change); higher = more stays soluble; pooled small domains, quantitative proteomics
Conditions: stress: 50 degC

Before answering, review these 3 worked examples.
HMQGATVYIKSDDIGKTTNEQGSFNFDKLKKNRYTLEISFIGYETKNLQAYTDRENIVQLNRKS 0.248
HMHDLGEQIIEKLRASGGISTLTDKSDPDAIYRQFKVSKKKYKQALGTLYKSRRITLAPNQIKLA -0.129
HMAADLIGLEARVTLPLTEDQRGFIETSVRGSLVRRAALSASGRLDRGQRVVILRSEGTTLIVDAL -0.844

Query: Quick one: soluble fraction (log2) of HMVSLSNQVFEKIEYDILSGKYKIGEIISEKRLSSELGVSRTPIREALGRLSEEGLVGDSPSGTVVLGI ?
Result: -0.431

----------
# soluble fraction (log2) values compiled below
Assay: soluble fraction after stress (log2 fold change); higher = more stays soluble; pooled small domains, quantitative proteomics
Conditions: stress: 50 degC
// response body must contain only the number

Before answering, review these 6 worked examples.
HMRSIVETLTDRELEIFQLIGNGFSTGEIARRLNLSPHTIETHRKNIKDKLGLSSGSELNKQAIQWVLSS 0.153
HMSKNIRQQFLDVLPKTFDRNQYLETAKKLSINAKTAEGYIKKFVEANLLDHPKHNHYINLKKVEEVETK 0.229
HMPLQYRLTVQPTPTNARVRLVNSAFTYRPGVALPPGSYIVEVSSSGYGAKRQAVQIADGDVTVPVELEKI -0.012
HMSGSLLQTRQRLQALTDLGHYKGDLAAAWGPEAIEALKRAQAALGITVDGKWGPETEDAIQVALQAQT 0.0305
HMAGTPAIVKWFNPTKGFGFVTPKEAGSDALLHASVLAKRGKRWLQEGTLVEVLIEEGPKGLVVSELLTIE -0.748
HMQADPYTVLGVLRDVTDGELKREYRKLVREHHPDALIAQGVPQEFVDIANNKLAVINAAYERIAKQRGL 0.00775

Query: Quick one: soluble fraction (log2) of HMINIGANIRAIRKQKNIKQVDLVRLLQLEGVEITRETLVKIESGVQHIKASQLRGIRDALGTTYDELL ?
Result: -2.95

Query: Quick one: soluble fraction (log2) of HMQQDVLKLKSGGNYKGEYINIESAYVLFKPEGGNATQRIKVNEIQMLKLADGTEVIFGGRVK ?
Result: 0.0478

----------
Assay: soluble fraction after stress (log2 fold change); higher = more stays soluble; pooled small domains, quantitative proteomics
Settings: stress: 50 degC
Binary classification by soluble fraction (log2), with -0.4 as an inclusive lower bound for Yes; all other cases are No.

HMGSIRDIIVQYLSKFDDPQPAAKIVEYVQQYRDTTESSIRSSMGSGDQFVQFSGGLYGLKDKTYAAWYSI Yes
HMSRIDRKGLTSQIVNHLSKNPGKNFTLKQFFRNLKLNTHPLKMLAVDVLNKLLDTNFITRNEDGEFFLKA Yes

Query: Textbook exercise: given the entry HMGAGDKQAQQASLMQIIALQKEGMALGLVEPKHLYHSFSKMIENAGFKDVQSFAVDPSTQQ , state whether its soluble fraction (log2) is greater than or equal to -0.4.
Result: Yes

Query: Textbook exercise: given the entry HMDYNSYGLTERELELVDYVLKGYSRKEMAEASGLKVNTIGSYMKKIYRKLNIHNRTELKERFI , state whether its soluble fraction (log2) is greater than or equal to -0.4.
Result: Yes

Query: Textbook exercise: given the entry HMQQDGSSSLGENMLNQELQARGVVPSEIPQEVWERVIQEAGKKSKREIYADIGLGRSLAAGFAQRLAA , state whether its soluble fraction (log2) is greater than or equal to -0.4.
Result: Yes

Query: Textbook exercise: given the entry HMIIDTELMTRVMKFGFSQADASDLVAQHSDDLLRTAISRVEARAESKGMTPLETPAGYFRWTLQDLVRNP , state whether its soluble fraction (log2) is greater than or equal to -0.4.
Result: No

Query: Textbook exercise: given the entry HMELGYTPNNLRSVRAKYGLTQKQVAEITGLKTWHPVNRWEAPVEAAYHADMPHTKWLKLLDELSSR , state whether its soluble fraction (log2) is greater than or equal to -0.4.
Result: No

Query: Textbook exercise: given the entry HMNPETLTNSSVIKMSKANLSDELITDMILNSPVKFDLSAGAIKTLESEGVTPAVLESMKNAASK , state whether its soluble fraction (log2) is greater than or equal to -0.4.
Result: Yes

Query: Textbook exercise: given the entry HMNEWVSVEERLPTDERPVLAFIGYADTMNGFITTSYYFRFDPDPHWLGEGLIPVGLKTLFWMPLPAP , state whether its soluble fraction (log2) is greater than or equal to -0.4.
Result: Yes
